# Test system: RPMI-8226 leukemia
# Assay comment: NCI tumour cell line growth inhibition, 48 h
Quantity: TGI

Sample records with TGI:
> print(dat)
                                   molecule       tested.target  test.result
1                 CN(C)c1nc(=NCc2ccccc2)ss1  RPMI-8226 leukemia      > 10 µM
2  Cc1cc(N(CCC#N)CCC#N)ccc1/C=C1N=C(/C=C/c2ccccc2)OC(=O)N\1  RPMI-8226 leukemia     > 100 µM
3  CC(C)(C)NC(=O)/C(=C\Sc1ccccc1)c1ccc2c(c1)OCO2  RPMI-8226 leukemia      94.4 µM
4           C=CCSc1nc2ccccc2c(=O)n1Cc1ccco1  RPMI-8226 leukemia     > 100 µM
5            COc1cc2cnc3c4ccccc4ccc3c2cc1OC  RPMI-8226 leukemia     > 100 µM

Please state TGI for every molecule in the list that follows.
1. NC(=O)c1cccc(Nc2nccc(Nc3cccc(F)c3)n2)c1
2. N#CCCN(CCC#N)c1ccc(/C=C2\N=C(c3ccccc3)N(c3ccc(Cl)cc3)C2=O)cc1
3. CCOC(=O)C(=O)Nc1ccccc1C(F)(F)F
4. O=C(O)CCC(NC(=S)S)C(=O)O.[Na+].[Zn+2] (stereo unspecified)
5. Cc1c(S(=O)(=O)/N=C(\N)Nc2ccc(Cl)cc2)sc2ccc(Cl)cc12

> 25 µM
> 100 µM
> 100 µM
> 50 µM
> 100 µM

Notebook entry, RPMI-8226 leukemia assay: TGI of "O=C(/C=C/c1ccsc1)c1ccsc1" = ? 47.2 µM

---

# System: SR leukemia
# Assay comment: NCI tumour cell line growth inhibition, 48 h; in the data active = GI50 below about 0.43 µM; inactive = the rest
Response enum: 1 (active), 0 (inactive)

Recorded results for 2 compounds are shown here.
> print(dat)
                                   compound  answer.label
1  O=S(=O)(CCOCc1ccc(-c2ccc3ncnc(Nc4ccc(OCc5cccc(F)c5)c(Cl)c4)c3c2)o1)c1ccccc1             0
2  CCCCCCCCCCCCCCCCCCNC(=O)[C@H]1CSC(c2cccs2)N1 (stereo not given in full)             0

Could you kindly confirm the outcome this assay logged for "c1ccc(Cn2cnc3ccc(-c4nc(-c5ccc6c(c5)ncn6C5CCCCC5)cn5ccnc45)cc32)cc1" ? 0

Could you kindly confirm the outcome this assay logged for "CC1(C)N=C(N)N=C(N)N1c1ccc(OCC(=O)Nc2ccccc2)c(Cl)c1" ? 0

Could you kindly confirm the outcome this assay logged for OC(CN1CC1)C(O)CN1CC1 (stereo not given) ? 0

Could you kindly confirm the outcome this assay logged for "CC1(C)CC[C@H](C2=CC(=O)c3c(O)ccc(O)c3C2=O)O1" ? 1

Could you kindly confirm the outcome this assay logged for "COc1ccc2cc(-c3ccc(-c4ccc(C(=N)N)s4)s3)ccc2c1" ? 0

Could you kindly confirm the outcome this assay logged for "Cn1c([N+](=O)[O-])cnc1/C=C1\Oc2cc(Cl)ccc2C1=O" ? 1

Could you kindly confirm the outcome this assay logged for "CCC(=C(c1ccc(OCCCN(C)C)cc1)c1ccc(OCCCN(C)C)cc1)c1ccc(Cl)cc1" ? 1

Could you kindly confirm the outcome this assay logged for "Cc1cc(Nc2nc(SCc3ccc(C(=O)Nc4ccc(F)cc4N)cc3)nn3cccc23)n[nH]1" ? 1

---

# Tested on: MDA-MB-231 breast
# Assay comment: NCI tumour cell line growth inhibition, 48 h; in the data active means GI50 below about 0.43 µM; inactive means the rest
Response enum: active, inactive

> print(dat)
                                   compound  answer.label
1      O=C1C(Cl)=C(Nc2ccccc2)C(=O)c2ccccc21      inactive
2   OB1OCc2cc(/C=C/c3cccc(C(F)(F)F)c3)ccc21      inactive
3  COc1cc([N+](=O)[O-])c(OC)cc1-c1nc2sc(Cl)cn2c1/C=N/Nc1ccccn1      inactive
4   OC(CN1CC1)C(O)CN1CC1 (stereo not given)      inactive
5  Cn1c([N+](=O)[O-])cnc1/C=C1\Oc2cc(Cl)ccc2C1=O      inactive
6  CCCCCCCCCCN=C(c1ccc(N(C)C)cc1)c1ccc(N(C)C)cc1      inactive
7  C[C@H]1[C@H](C)CC[C@]2(C(=O)NCCNCCN)CC[C@]3(C)C(=CC[C@@H]4[C@@]5(C)CCC(=O)C(C)(C)[C@@H]5CC[C@]43C)[C@H]12      inactive
8      O=c1oc(-c2ccc(O)c(O)c2)cc2cccc(O)c12      inactive

Could you kindly confirm the outcome this assay logged for "c1ccc2nc3c(cc4ccccn43)nc2c1" ? inactive

Could you kindly confirm the outcome this assay logged for "COCCOCCOCc1n(Cc2ccc3ccccc3n2)c2ccccc2[n+]1Cc1ccc2ccccc2c1" ? active

---

# Test system: HS 578T breast
# Assay comment: NCI tumour cell line growth inhibition, 48 h
Quantity: TGI

Sample records with TGI:
> print(dat)
                                   compound  test.result
1  Cc1c(S(=O)(=O)/N=C(\N)Nc2ccc(Cl)cc2)sc2ccc(Cl)cc12        59 µM
2  COc1ccc(C2(CC(C)O)SCCCS2)cc1 (configuration not stated)     > 100 µM
3  COc1nc(C#CCC(C)O)nc(OC)n1 (configuration not stated)        72 µM

Please state TGI for every compound in the list that follows.
1. Cc1ccc2c(c1)Sc1ccc(N=NN(C)C)cc1N2C
2. COc1cc(C2CC(C)(Nc3ccccc3)Oc3cc4c(cc32)OCO4)cc(OC)c1OC (configuration not stated)
3. CCOC1Oc2ccccc2-c2oc(=O)c(Sc3ccc(C)cc3)cc21 (configuration not stated)
4. O=C(CNc1ccccc1Cl)Nn1c(-c2ccccc2)nc2ccccc2c1=O
5. COc1ccc(-c2nnc(N3CCN(C(=O)CN4CCN(c5ccc(OC)cc5)CC4)CC3)nc2-c2ccc(OC)cc2)cc1
6. NC(=O)c1cccc(Nc2nccc(Nc3cccc(F)c3)n2)c1
7. C=CCn1c(=O)ccn(COCCO)c1=O
8. C=CCO/N=C/c1cc(NC(=S)c2ccoc2C)ccc1Cl

["> 100 µM", "> 100 µM", "> 100 µM", "89.5 µM", "9.2 µM", "> 25 µM", "> 100 µM", "64.4 µM"]

---

# System: SW-620 colon
# Assay comment: NCI tumour cell line growth inhibition, 48 h
Quantity: TGI (µM)
Give bare numbers, in µM.

Please state TGI for every molecule in the list that follows.
1. Cn1cc(-c2csc(-c3cn(C)c4ccccc34)n2)c2cnccc21
2. CNC(SC)=C1C(=O)OC(C)(C)OC1=O
3. Cl[Si]1(Cl)Oc2ccccc2O[Si](Cl)(Cl)Oc2ccccc2O1

1: 3.63; 2: 38.5; 3: 54.5

---

# Test system: 786-0 renal
# Assay comment: NCI tumour cell line growth inhibition, 48 h; in the data active means GI50 below about 0.43 µM; inactive means the rest
Response enum: yes (1) = active, no (0) = inactive

Molecule	Answer label
Cn1c(/C(C#N)=C/c2ccc3ccccc3c2)cc2ccccc21	yes (1)

Could you kindly confirm the outcome this assay logged for "O=S1(=O)NCCCN1CCNc1nccc(-c2c(-c3cccc(O)c3)nc3sccn23)n1" ? no (0)

Could you kindly confirm the outcome this assay logged for CCOC1Oc2ccccc2-c2oc(=O)c(Sc3ccc(C)cc3)cc21 (stereo not drawn) ? no (0)

Could you kindly confirm the outcome this assay logged for C=C1CC2(OC1=O)C(=O)N(CCCN1C(=O)C3(CC(=C)C(=O)O3)c3ccccc31)c1ccccc12 (stereo not drawn) ? no (0)

Could you kindly confirm the outcome this assay logged for "CC(=O)[O-].CC(=O)[O-].CC(=O)[O-].CC(=O)[O-].[Mo+2].[Mo+2]" ? no (0)

Could you kindly confirm the outcome this assay logged for "Cn1c([N+](=O)[O-])cnc1/C=C1\Oc2cc(Cl)ccc2C1=O" ? no (0)

Could you kindly confirm the outcome this assay logged for "O=c1c2c3c(sc2n2c(-c4cc(-c5ccccc5)nn4-c4ccccc4)nnc2n1Cc1ccccc1)CCCC3" ? no (0)

Could you kindly confirm the outcome this assay logged for "CC(=O)N[C@H](C(=O)N[C@@H](CCCNC(=N)N)C(=O)N[C@@H](CCCCN)C(=O)N[C@@H](CCCNC(=N)N)C(=O)N[C@]1(C)CCCCCC/C=C\CCC[C@@](C)(C(=O)N[C@@H](CCCNC(=N)N)C(=O)N[C@@H](CCC(=O)O)C(=O)N[C@@H](CC(C)C)C(=O)N[C@H](C(=O)N[C@@H](CCC(=O)O)C(N)=O)C(C)C)NC(=O)[C@H](CCC(N)=O)NC(=O)[C@H](CC(C)C)NC(=O)[C@H](CC(C)C)NC(=O)[C@H](CCCNC(=N)N)NC(=O)[C@H](CCCNC(=N)N)NC(=O)[C@H](CC(C)C)NC1=O)C(C)C" ? no (0)

---

# Tested on: SNB-75 CNS
# Assay comment: NCI tumour cell line growth inhibition, 48 h
What TGI was measured for each of the following?

Sample records with TGI:
> print(dat)
                                   molecule  test.result
1  CCN(CC)CCNC(=O)c1cn2ncnc(Oc3ccc(NC(=O)Nc4ccc(Cl)c(C(F)(F)F)c4)c(F)c3)c2c1C      1.97 µM
2  COC(=O)/C(C#N)=C1\CCC(C(=O)OC)N1C (stereo unspecified)     > 100 µM
3  Cc1nn(C(=O)Cc2ccccc2)c2c1C(c1ccc(O)cc1)SC(N)=N2 (stereo unspecified)     > 100 µM
4              CNC(SC)=C1C(=O)OC(C)(C)OC1=O     > 100 µM
5                  O=C(/C=C/c1ccsc1)c1ccsc1     > 100 µM

Please state TGI for every molecule in the list that follows.
1. COc1cc(NS(C)(=O)=O)ccc1N1Cc2cnc3ccc4[nH]c(C)cc1c4c23
2. CSc1c(C#N)c(N)n2c1C(=O)N(c1ccccc1)C2=S
3. C=CCNC(=S)/N=C/c1c(O)c2ccccc2oc1=O

1: 46.5 µM; 2: > 100 µM; 3: > 100 µM
